Each record here notes measured MIC.
System: Mycobacterium tuberculosis
Assay: Antitubercular activity against Mycobacterium tuberculosis H37Rv ATCC 27294 after 5 days by microplate alamar blue assay
Type: functional
Settings: H37Rv ATCC 27294, 120 h

>  <structure as smiles>
Cn1c(=O)c2ncn(Cc3cc(=O)oc4ccc5ccccc5c34)c2n(C)c1=O

>  <MIC / µg/mL>
1.95

$$$$
>  <structure as smiles>
NNC(=O)c1ccncc1

>  <MIC / µg/mL>
0.06

$$$$
>  <structure as smiles>
Cc1ccc2oc(=O)cc(Cn3cnc4c(=O)n(C)c(=O)n(C)c43)c2c1

>  <MIC / µg/mL>
0.12

$$$$
